The entries below are paired with their reported Velvetleaf plant response rating.
Tested on: velvetleaf (Abutilon theophrasti)
Assay: Test A pre-/postemergence plant response
Format: in vivo
Conditions: Postemergence, 500 g ai/ha; visual injury, 0 to 100 scale (0 no effect, 100 complete control), approx. ten days

Illustrative cases are given below, each with its answer.
Q: Using the record for Cc1ccc(Cl)cc1-n1c(-c2cc(F)cc(F)c2)ncc(C(=O)C2=C(O)CCCC2=O)c1=O , report its Velvetleaf plant response rating.
Result: 100

Q: If you can, please state the reported Velvetleaf plant response rating value of CCn1c(-c2ccccc2)ncc(C(=O)C2=C(O)C3CCC(C3)C2=O)c1=O (stereo not drawn) .
Result: 100

---
Q: Consider the compound COc1ccc(-n2c(-c3cccc(F)c3)ncc(C(=O)C3=C(O)CCCC3=O)c2=O)cc1 and give its measured Velvetleaf plant response rating.
Result: 100
